Settings: in water, 278.15 K
REPORTED PROPERTY: solubility (mole fraction)

[in] Let me know recorded solubility (mole fraction) for "CC(=O)Oc1ccc(C(c2ccc(OC(C)=O)cc2)c2ccccn2)cc1" , thanks.
[out] 9.39e-08

----------
Conditions: in water, 318.15 K
REPORTED PROPERTY: solubility (mole fraction)
Numbers only.

[in] Let me know recorded solubility (mole fraction) for "CC(=O)Oc1ccc(C(c2ccc(OC(C)=O)cc2)c2ccccn2)cc1" , thanks.
[out] 3.57e-07

----------
Conditions: in ethanol, 278.15 K
REPORTED PROPERTY: solubility (mole fraction)
Answers are plain numbers.

[in] Let me know recorded solubility (mole fraction) for "CC(=O)Oc1ccc(C(c2ccc(OC(C)=O)cc2)c2ccccn2)cc1" , thanks.
[out] 0.000239

----------
Details: in methanol, 313.15 K
REPORTED PROPERTY: solubility (mole fraction)
Answers are plain numbers.

[in] Let me know recorded solubility (mole fraction) for "CC(=O)Oc1ccc(C(c2ccc(OC(C)=O)cc2)c2ccccn2)cc1" , thanks.
[out] 0.00292

----------
Settings: in isopropanol, 288.15 K
REPORTED PROPERTY: solubility (mole fraction)
Answers are plain numbers.

[in] Let me know recorded solubility (mole fraction) for "CC(=O)Oc1ccc(C(c2ccc(OC(C)=O)cc2)c2ccccn2)cc1" , thanks.
[out] 0.000225

----------
Conditions: in water, 313.15 K
REPORTED PROPERTY: solubility (mole fraction)

[in] Let me know recorded solubility (mole fraction) for "CC(=O)Oc1ccc(C(c2ccc(OC(C)=O)cc2)c2ccccn2)cc1" , thanks.
[out] 3.08e-07

----------
Settings: in ethanol, 313.15 K
REPORTED PROPERTY: solubility (mole fraction)

[in] Let me know recorded solubility (mole fraction) for "CC(=O)Oc1ccc(C(c2ccc(OC(C)=O)cc2)c2ccccn2)cc1" , thanks.
[out] 0.00192

----------
Conditions: in isopropanol, 303.15 K
REPORTED PROPERTY: solubility (mole fraction)
Give bare numbers.

[in] Let me know recorded solubility (mole fraction) for "CC(=O)Oc1ccc(C(c2ccc(OC(C)=O)cc2)c2ccccn2)cc1" , thanks.
[out] 0.000579

----------
Settings: in ethanol, 303.15 K
REPORTED PROPERTY: solubility (mole fraction)

[in] Let me know recorded solubility (mole fraction) for "CC(=O)Oc1ccc(C(c2ccc(OC(C)=O)cc2)c2ccccn2)cc1" , thanks.
[out] 0.0011

----------
Conditions: in ethanol, 318.15 K
REPORTED PROPERTY: solubility (mole fraction)
One number for each entry.

[in] Let me know recorded solubility (mole fraction) for "CC(=O)Oc1ccc(C(c2ccc(OC(C)=O)cc2)c2ccccn2)cc1" , thanks.
[out] 0.0025

----------
Conditions: in methanol, 323.15 K
REPORTED PROPERTY: solubility (mole fraction)
Answers are plain numbers.

[in] Let me know recorded solubility (mole fraction) for "CC(=O)Oc1ccc(C(c2ccc(OC(C)=O)cc2)c2ccccn2)cc1" , thanks.
[out] 0.00449

----------
Details: in methanol, 298.15 K
REPORTED PROPERTY: solubility (mole fraction)
One number for each entry.

[in] Let me know recorded solubility (mole fraction) for "CC(=O)Oc1ccc(C(c2ccc(OC(C)=O)cc2)c2ccccn2)cc1" , thanks.
[out] 0.0015
